Listed here: items and their measured inhibition.
# protocol_notes: RAM pathway blockade in budding yeast – dse1pr::URA3 reporter, 5-FOA selection, pilot screen (AID 869);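 further: 0% = DMSO wells with no growth and 100% = 10 µM 1-NA-PP1 with full growth; RAM network block rescues cells from 5-FOA so hits raise OD615 growth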
# measurement_parameters: S. cerevisiae dse1pr::URA3 5-FOA growth, OD615, 2 d; at 10 µM; active compounds read high; strain carries analog-sensitive mutant Cbk1 kinase

>  <molecule>
CCOc1ccc(N(CC(=O)Nc2ccc(F)c(F)c2)S(=O)(=O)c2c(C)noc2C)cc1

>  <unit_label>
%

>  <inhibition>
2.33

$$$$
>  <molecule>
Cc1ccc(Cn2c(=O)c3ccccc3n3c(CCC(=O)O)nnc23)cc1

>  <unit_label>
%

>  <inhibition>
2.29

$$$$
>  <molecule>
O=C(NCc1cccs1)C(Cc1ccccc1)n1cccc1 (configuration not stated)

>  <unit_label>
%

>  <inhibition>
3.21

$$$$
>  <molecule>
COc1ccc(C2C(C(=O)Nc3ccc(F)cc3)=C(C)Nc3nc(CCCO)nn32)cc1 (configuration not stated)

>  <unit_label>
%

>  <inhibition>
0.24

$$$$
>  <molecule>
O=C(NCc1ccc(Cl)cc1)C1CCCN(S(=O)(=O)c2cnc[nH]2)C1 (configuration not stated)

>  <unit_label>
%

>  <inhibition>
2.04

$$$$
>  <molecule>
Cc1cc(NC(=O)c2cccc(S(=O)(=O)N3CC(c4ccccc4)CC3=O)c2)no1 (configuration not stated)

>  <unit_label>
%

>  <inhibition>
1.83

$$$$
>  <molecule>
Cc1cc2cc(CCNC(=O)CC(C)C)c(=O)[nH]c2cc1C

>  <unit_label>
%

>  <inhibition>
0.365

$$$$
>  <molecule>
Cc1cc(N2CCOCC2)c2c(N)c(Br)cc(C)c2n1

>  <unit_label>
%

>  <inhibition>
1.16

$$$$
>  <molecule>
Cc1ccc(C2N(c3ccc(F)cc3)C(=O)C3CCCN32)cc1 (configuration not stated)

>  <unit_label>
%

>  <inhibition>
2.21

$$$$
>  <molecule>
CCc1nnc(NC(=O)CSc2nnc(Cc3cccn3C)n2CCOC)s1

>  <unit_label>
%

>  <inhibition>
0.98

$$$$
>  <molecule>
CCCn1cc(SCC(=O)Nc2nnc(C)s2)c2ccccc21

>  <unit_label>
%

>  <inhibition>
1.1

$$$$
>  <molecule>
CC1(C(=O)NC2CCCCC2)CCC(=O)N1Cc1cccs1 (configuration not stated)

>  <unit_label>
%

>  <inhibition>
3.65

$$$$
>  <molecule>
COc1cccc(-c2nc(CS(=O)(=O)CC(=O)N3CCN(c4ccccn4)CC3)c(C)o2)c1

>  <unit_label>
%

>  <inhibition>
0.835

$$$$
>  <molecule>
Cc1ccc(/C=N/n2c(C)nnc2C)cc1

>  <unit_label>
%

>  <inhibition>
0.135

$$$$
>  <molecule>
CCOc1ccc2[nH]c(C)cc(=O)c2c1

>  <unit_label>
%

>  <inhibition>
2.86

$$$$
>  <molecule>
Cc1ccc2[nH]c(=O)c3cc(C(=O)N4CCN(C(=O)c5ccco5)CC4)sc3c2c1

>  <unit_label>
%

>  <inhibition>
1.16

$$$$
>  <molecule>
CCOc1ccc(N(CC(=O)NC2CCCCC2)S(=O)(=O)c2c(C)noc2C)cc1

>  <unit_label>
%

>  <inhibition>
3.15

$$$$
>  <molecule>
COc1ccccc1NC(=O)C1=C(C)Nc2nnnn2C1c1cccc(C)c1 (configuration not stated)

>  <unit_label>
%

>  <inhibition>
3.79

$$$$
>  <molecule>
CN1C(=O)C(O)(CC(=O)c2ccccc2O)c2cc(Br)ccc21 (configuration not stated)

>  <unit_label>
%

>  <inhibition>
-0.67

$$$$
>  <molecule>
Nc1nc2n(n1)C(c1c(F)cccc1Cl)CC(c1ccc(F)cc1)N2 (configuration not stated)

>  <unit_label>
%

>  <inhibition>
0.17

$$$$
>  <molecule>
Cc1cc(C)c2c(=O)n(CC(=O)N3CCC(Cc4ccccc4)CC3)sc2n1

>  <unit_label>
%

>  <inhibition>
1.6

$$$$
>  <molecule>
CC1CCN(C(=O)CSc2nc3c(cnn3-c3ccccc3)c(=O)[nH]2)CC1

>  <unit_label>
%

>  <inhibition>
1.47

$$$$
